Target under test: Bruton's tyrosine kinase (Btk) (Bos taurus, UniProt Q3ZC95, N24D/R28C)
Construct: PH-TH module (residues 1 to 172)
Sequence (Q3ZC95 1-172 N24D/R28C): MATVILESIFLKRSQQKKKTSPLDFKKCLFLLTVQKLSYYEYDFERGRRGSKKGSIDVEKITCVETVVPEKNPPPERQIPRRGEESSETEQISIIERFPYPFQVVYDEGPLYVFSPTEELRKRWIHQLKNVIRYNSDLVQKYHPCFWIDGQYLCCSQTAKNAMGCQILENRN
Measurement protocol: ITC with the canonical-site mutant (also printed as R28C/N24D and R28C/N24E)
Property measured: Kd (µM)
All answers are understood in µM, so give the number only.

Input line: Determine from records and report Kd for O=P(O)(O)O[C@H]1[C@H](OP(=O)(O)O)[C@@H](OP(=O)(O)O)[C@H](OP(=O)(O)O)[C@@H](OP(=O)(O)O)[C@H]1OP(=O)(O)O [IP6, inositol hexakisphosphate]
Output line: 4.76

----------
Target under test: Bruton's tyrosine kinase (Btk) (Bos taurus, UniProt Q3ZC95)
Construct: PH-TH module (residues 1 to 172)
Sequence (Q3ZC95 1-172): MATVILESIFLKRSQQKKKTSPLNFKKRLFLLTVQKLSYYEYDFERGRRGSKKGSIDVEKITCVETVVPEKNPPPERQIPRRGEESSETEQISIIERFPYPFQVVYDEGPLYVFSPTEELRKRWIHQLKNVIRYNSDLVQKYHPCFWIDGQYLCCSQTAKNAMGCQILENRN
Measurement protocol: ITC; crystal structure at […] Å; also activates full-length Btk (EC50 around […])
Type: binding
Property measured: pKd
Please express pKd as -log10 of the molar concentration.

Input line: // Input: O=P(O)(O)O[C@H]1[C@H](OP(=O)(O)O)[C@@H](OP(=O)(O)O)[C@H](OP(=O)(O)O)[C@@H](OP(=O)(O)O)[C@H]1OP(=O)(O)O [IP6, inositol hexakisphosphate] . Output its pKd only.
Output line: 6.62
